# credit: patent US20240132603A1

Molecular target: T1, human CCR8 (human, UniProt P51685 1-355)
T1 construct: whole, on cells; construct used for the overexpressing cell lines is not described; also called hCCR8
T1 sequence (P51685 whole entry): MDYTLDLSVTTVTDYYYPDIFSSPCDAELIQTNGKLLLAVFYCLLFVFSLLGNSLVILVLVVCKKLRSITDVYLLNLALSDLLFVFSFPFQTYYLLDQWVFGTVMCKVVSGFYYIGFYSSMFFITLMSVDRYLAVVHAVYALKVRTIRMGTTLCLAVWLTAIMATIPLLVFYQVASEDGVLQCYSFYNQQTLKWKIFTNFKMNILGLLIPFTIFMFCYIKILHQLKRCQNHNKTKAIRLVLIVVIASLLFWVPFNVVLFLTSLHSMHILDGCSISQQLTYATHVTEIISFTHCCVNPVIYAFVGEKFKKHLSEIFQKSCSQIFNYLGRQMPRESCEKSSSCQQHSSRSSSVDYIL
Assay: FACS, CHO-K1-hCCR8 cells
Protocol: Cells overexpressing human CCR8 were digested with pancreatin, counted and resuspended to a cell density of 1E6 cells/mL. The cell suspension was added to a 96-well V-bottom plate at 100 μL/well and centrifuged at 300 g for 5 min, and the supernatant was discarded. The anti-CCR8 antibodies provided herein was used as a primary antibody and diluted in a 5-fold gradient with an FACS buffer (DPBS containing 2% FBS) from 200 nM. […]
PARAMETER_MEASURED: pEC50
Scale: pEC50 equals -log10([C]), with [C] in mol/L.

{"BINDER": "PR006154 (antibody, human IgG1, kappa, V domains shown) VH: EVQLVESGGGLVKPGGSLRLSCAASGFTFSTYAMNWVRQAPGKGLEWVGRIRSKSNNYATYYADSVKDRFTISRDDSKSTLYLQMNSLKTEDTAVYYCVRGKEHGNYYAMDFWGQGTTVTVSS VL: DIVMTQSPLSLPVTLGQPASISCRSSKSLLHSNAKIYLYWFQQRPGQSPRLLIYRMSNLASGVPDRFSGSGSGTDFTLKISRVEAEDVGVYYCMQHLEYPLTFGQGTKLEIKR", "pEC50": 9.42}

Data point: PR004120 (antibody, human IgG1, kappa, V domains shown, chimeric, human IgG1 constant region) VH: EVQLVESGGGLVQPKGSLKLSCAASGFTFNTNAMNWVRQAPGKGLEWVARIRSKMNNYATYYADSVKDRFTISRDDSQNMLYLQMNNLKTEDTAMYYCVRGKENGNYYAMDFWGQGTSVTVSA VL: DIVMTQAATSVLVTPGESVSISCRSSKSLLYSNGNTYLYWFLQRPGQSPQLLIYRMSNLASGVPDRFSGSGSGTAFTLRISRVEAEDVGVYYCMQHLEYPFTFGGGTKLEIKR ; pEC50 = 9.27

Data point: PR004123 (antibody, human IgG1, kappa, V domains shown, chimeric, human IgG1 constant region) VH: EVQLVESGGGLVQPKGSLKLSCAASEFTFNTYAMNWVRQAPGKGLEWVARIRTKSNNFATYYADSVKDRFTISRDDSQSMLFLQMNNLKTEDTAMYYCVRGKENGNYYAMDFWGQGTSVTVSA VL: DIVMTQAAPSVPVTPGESVSISCRSSKSLLHSNGNTYLYWFLQRPGQSPQLLIYRMSNLASGVPDRFSGSGSGTAFTLRISRVEAEDVGVYYCMQHLEYPFTFGGGTKLELKR ; pEC50 = 9.34

Data point: PR004130 (antibody, human IgG1, kappa, V domains shown, chimeric, human IgG1 constant region) VH: EVQLVESGGGLVQFKGSLKLSCGTSGFTFNTYAMNWVRQAPGKGLEWVARIRSKSNNYATFYADSVKDRFTISRDDSQNMLYLQMNNLKTEDTAMYYCVRGKENGNYYAMDFWGQGTSVTVSS VL: DIVMTQAAPSVPVTPGESVSISCRSSKSLLHSNGNTYLYWFLQRPGQSPQLLIYRMSNLASGVPDRFSGSGSGTAFTLRISRVEAEDVGVYYCMQHLEYPFTFGSGTKLEIKR ; pEC50 = 9.34
